Attribution: patent US10947213B1

Target: TLR7/NFKb HEK cells (Homo sapiens, UniProt Q9NYK1)
Sequence (Q9NYK1 27-1049): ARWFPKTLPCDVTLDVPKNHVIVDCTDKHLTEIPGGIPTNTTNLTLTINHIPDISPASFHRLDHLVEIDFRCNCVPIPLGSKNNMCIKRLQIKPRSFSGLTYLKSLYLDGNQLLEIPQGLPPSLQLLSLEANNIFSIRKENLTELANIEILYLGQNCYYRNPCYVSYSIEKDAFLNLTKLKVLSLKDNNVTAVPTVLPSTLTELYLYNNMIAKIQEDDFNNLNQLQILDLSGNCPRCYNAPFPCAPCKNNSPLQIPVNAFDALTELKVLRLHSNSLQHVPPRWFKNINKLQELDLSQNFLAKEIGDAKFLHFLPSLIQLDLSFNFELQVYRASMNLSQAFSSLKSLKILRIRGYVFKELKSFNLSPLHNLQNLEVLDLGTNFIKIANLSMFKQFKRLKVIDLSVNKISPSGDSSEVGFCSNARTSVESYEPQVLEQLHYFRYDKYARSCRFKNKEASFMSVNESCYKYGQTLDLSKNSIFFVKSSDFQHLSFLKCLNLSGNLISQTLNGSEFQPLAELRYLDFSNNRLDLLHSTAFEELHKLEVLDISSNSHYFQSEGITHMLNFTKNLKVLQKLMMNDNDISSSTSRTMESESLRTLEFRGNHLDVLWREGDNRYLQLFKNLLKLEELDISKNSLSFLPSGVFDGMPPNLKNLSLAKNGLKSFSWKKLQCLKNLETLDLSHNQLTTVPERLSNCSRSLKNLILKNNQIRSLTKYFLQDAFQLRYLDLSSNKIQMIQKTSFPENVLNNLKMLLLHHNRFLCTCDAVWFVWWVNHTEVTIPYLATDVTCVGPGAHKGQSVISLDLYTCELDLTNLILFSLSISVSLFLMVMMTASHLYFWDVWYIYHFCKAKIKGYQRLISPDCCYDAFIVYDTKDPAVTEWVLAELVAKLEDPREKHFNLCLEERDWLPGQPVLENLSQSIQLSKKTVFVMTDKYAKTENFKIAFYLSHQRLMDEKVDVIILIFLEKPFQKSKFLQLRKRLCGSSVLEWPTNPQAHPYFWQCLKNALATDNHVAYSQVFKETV
Assay: HEK Cell Assay (TLR7/NFKb reporter, Steady-Glo luciferase readout)
Conditions: 30 min compound preincubation, then R*48 agonist for 5 hours, read-out: Potency
pIC50: −log10 of the molar value. Where a name gives a salt, the structure may show the parent alone.
Assignment: determine reported pIC50 for the given molecules.

Let me check: CC1CC(C(=O)NC2CCCN(C)C2)CN(c2ccc(C#N)c3nccnc23)C1 (stereo not shown) [Compound 543] , system TLR7/NFKb HEK cells (Homo sapiens, UniProt Q9NYK1), measured pIC50 is > 6.00

Let me check: C[C@H]1C[C@@H](NC(=O)CC2CCN(CC(F)F)CC2)CN(c2ccc(C(F)(F)F)c3ncccc23)C1 [Compound 246] , system TLR7/NFKb HEK cells (Homo sapiens, UniProt Q9NYK1), measured pIC50 is > 6.00

Let me check: c1ccc2c(N3CCC(CNCCN4CCOCC4)CC3)ccnc2c1 [Compound 7] , system TLR7/NFKb HEK cells (Homo sapiens, UniProt Q9NYK1), measured pIC50 is < 5.00

Let me check: C[C@H]1C[C@@H](NC(=O)CC2CN(C)C2)CN(c2ccc(C(F)(F)F)c3ncccc23)C1 [Compound 360] , system TLR7/NFKb HEK cells (Homo sapiens, UniProt Q9NYK1), measured pIC50 is > 6.00

Let me check: CC(O)C(=O)N[C@@H]1C[C@H](C)CN(c2ccc(C(F)F)c3ncccc23)C1 (stereo partly shown) [Compound 302] , system TLR7/NFKb HEK cells (Homo sapiens, UniProt Q9NYK1), measured pIC50 is 5.00 to 6.00

Let me check: C[C@H]1C[C@@H](NC2CCNC2=O)CN(c2ccnc3nccnc23)C1 (stereo partly shown) [Compound 127] , system TLR7/NFKb HEK cells (Homo sapiens, UniProt Q9NYK1), measured pIC50 is < 5.00

Let me check: CCN(CC)CCNC(=O)C1CCN(c2ccnc3nccnc23)CC1 [Compound 379] , system TLR7/NFKb HEK cells (Homo sapiens, UniProt Q9NYK1), measured pIC50 is 5.00 to 6.00

Let me check: C[C@H]1C[C@@H](NC(=O)C2(N)CC2)CN(c2ccnc3nccnc23)C1 [Compound 30, hydrochloride] , system TLR7/NFKb HEK cells (Homo sapiens, UniProt Q9NYK1), measured pIC50 is < 5.00

Let me check: Cc1ccc(N2C[C@@H](C)C[C@@H](N)C2)c2cccnc12 [Compound 462, hydrochloride] , system TLR7/NFKb HEK cells (Homo sapiens, UniProt Q9NYK1), measured pIC50 is > 6.00

Let me check: C[C@H]1C[C@@H](NC(=O)CO)CN(c2ccc(Cl)c3ncccc23)C1 [Compound 263] , system TLR7/NFKb HEK cells (Homo sapiens, UniProt Q9NYK1), measured pIC50 is > 6.00

Let me check: N#Cc1ccc(N2C[C@H](NC(=O)C3CCN(C4CC4)CC3)C[C@H](C(F)(F)F)C2)c2cccnc12 [Compound 578] , system TLR7/NFKb HEK cells (Homo sapiens, UniProt Q9NYK1), measured pIC50 is > 6.00

Let me check: COCCN[C@H]1CN(c2ccc(C#N)c3nccnc23)CC(C)(C)C1 [Compound 216] , system TLR7/NFKb HEK cells (Homo sapiens, UniProt Q9NYK1), measured pIC50 is > 6.00

Let me check: C[C@H]1C[C@@H](NC(=O)C2CC(F)(F)C2)CN(c2ccc(C(F)F)c3ncccc23)C1 [Compound 317] , system TLR7/NFKb HEK cells (Homo sapiens, UniProt Q9NYK1), measured pIC50 is < 5.00

Let me check: C[C@H]1C[C@@H](NC(=O)CN2CC(N)C2)CN(c2ccc(C(F)(F)F)c3nccnc23)C1 [Compound 361] , system TLR7/NFKb HEK cells (Homo sapiens, UniProt Q9NYK1), measured pIC50 is > 6.00

Let me check: Cc1ncc(N2C[C@@H](C)C[C@@H](NC(=O)CC3CCN(C)C3)C2)c2cccnc12 (stereo partly shown) [Compound 560] , system TLR7/NFKb HEK cells (Homo sapiens, UniProt Q9NYK1), measured pIC50 is > 6.00

Let me check: O=C(CN1CCOCC1)N[C@H]1C[C@@H](C2CC2)CN(c2ccc(C(F)(F)F)c3nccnc23)C1 (relative stereo) [Compound 335] , system TLR7/NFKb HEK cells (Homo sapiens, UniProt Q9NYK1), measured pIC50 is < 5.00
